target: Thermosynechococcus elongatus PKUAC-SCTE542 protoporphyrinogen IX oxidase CyPPO19 (SEQ ID NO: 1) variant A167I (MBP fusion) (Thermosynechococcus sichuanensis, UniProt A0A7D6JSC1, A167I); test: biochemical; conditions: 50 μM protoporphyrinogen IX, pH 7.5, room temperature, 30 min, 10,000 means equivalent to or higher
Sequence (A0A7D6JSC1 entry or part of it A167I): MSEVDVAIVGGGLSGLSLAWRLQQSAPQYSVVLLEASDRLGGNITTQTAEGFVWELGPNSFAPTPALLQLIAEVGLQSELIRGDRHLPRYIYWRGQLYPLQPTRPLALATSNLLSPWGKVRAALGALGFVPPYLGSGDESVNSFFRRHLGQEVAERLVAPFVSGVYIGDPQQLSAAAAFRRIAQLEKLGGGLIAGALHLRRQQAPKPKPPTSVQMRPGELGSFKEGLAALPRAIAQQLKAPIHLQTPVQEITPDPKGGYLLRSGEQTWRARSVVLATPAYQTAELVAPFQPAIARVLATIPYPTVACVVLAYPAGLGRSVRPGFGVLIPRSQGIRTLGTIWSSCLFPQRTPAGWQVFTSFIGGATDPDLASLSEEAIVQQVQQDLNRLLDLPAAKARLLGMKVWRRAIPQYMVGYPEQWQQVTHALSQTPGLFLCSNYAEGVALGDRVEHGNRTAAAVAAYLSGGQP
pIC50: −log10 of the molar value.
readout.name: pIC50

pIC50 lookup needed for Cc1nn(-c2cc(CC(Cl)C(=O)O)c(Cl)cc2F)c(=O)n1C(F)F (stereo not shown) , thanks.
≤ 5.00

====

target: Thermosynechococcus elongatus PKUAC-SCTE542 protoporphyrinogen IX oxidase CyPPO19 (SEQ ID NO: 1) variant V165S (MBP fusion) (Thermosynechococcus sichuanensis, UniProt A0A7D6JSC1, V165S); experiment: biochemical; conditions: 50 μM protoporphyrinogen IX, pH 7.5, room temperature, 30 min, 10,000 means equivalent to or higher
Sequence (A0A7D6JSC1 entry or part of it V165S): as the sequence (A0A7D6JSC1 entry or part of it A167I) above, with V165S, I167A counted along it
readout.name: IC50

Which measured IC50 value corresponds to Cc1nn(-c2cc(CC(Cl)C(=O)O)c(Cl)cc2F)c(=O)n1C(F)F (stereo not shown) [Carfentrazone] ?
≥ 10 µM

Data provenance: patent US12698507B2
